tgt: rat mGlu2 (Rattus norvegicus)
Construct: expressed in transfected cells; host or cells: HEK-293
Sequence (P31421 19-872): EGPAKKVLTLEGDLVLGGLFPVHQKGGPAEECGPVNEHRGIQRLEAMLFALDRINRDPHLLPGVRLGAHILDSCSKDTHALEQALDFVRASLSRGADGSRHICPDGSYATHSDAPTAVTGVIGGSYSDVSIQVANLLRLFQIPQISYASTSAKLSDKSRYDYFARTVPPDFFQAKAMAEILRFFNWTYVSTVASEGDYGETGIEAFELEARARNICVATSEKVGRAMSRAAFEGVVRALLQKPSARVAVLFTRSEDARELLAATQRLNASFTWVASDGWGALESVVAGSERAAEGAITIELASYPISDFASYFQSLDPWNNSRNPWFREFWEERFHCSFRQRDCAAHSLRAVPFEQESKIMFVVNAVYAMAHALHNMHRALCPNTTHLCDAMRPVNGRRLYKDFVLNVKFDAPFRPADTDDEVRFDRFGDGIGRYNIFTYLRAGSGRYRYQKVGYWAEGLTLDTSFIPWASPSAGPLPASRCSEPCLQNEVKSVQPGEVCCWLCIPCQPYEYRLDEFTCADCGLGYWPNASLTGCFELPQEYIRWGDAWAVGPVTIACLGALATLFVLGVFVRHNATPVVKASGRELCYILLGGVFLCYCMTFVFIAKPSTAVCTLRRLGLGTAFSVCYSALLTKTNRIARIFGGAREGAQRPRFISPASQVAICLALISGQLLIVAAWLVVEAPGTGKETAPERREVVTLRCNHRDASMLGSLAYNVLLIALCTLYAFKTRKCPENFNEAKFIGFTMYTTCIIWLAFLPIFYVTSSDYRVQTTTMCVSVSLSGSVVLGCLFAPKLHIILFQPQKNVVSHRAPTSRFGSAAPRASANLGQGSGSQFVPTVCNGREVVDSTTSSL
procedure.details: mGlu GIRK cell-based thallium flux assay, rat mGlu2
stated.conditions: rat mGlu2 GIRK IC50 (nM), HEK-293 cells co-expressing rat mGlu2 and GIRK; EC80 glutamate; Tl flux
observable: log10 IC50 (log10 of the value in nM)
Record value = log10 of IC50 given in nM.

Record excerpt, results attached:
compound: Cc1ncc(COc2cc3c(cc2-c2ccc(F)cc2)C(=O)NC3)s1 [Compound 26]
number: 1.96
--
compound: O=C1NCc2cc(Oc3ccncc3)c(-c3ccc(F)cc3F)cc21 [Compound 32]
number: 2.18
--
compound: Cc1c(S(=O)(=O)N2CC(Oc3cc4c(cc3-c3ccc(F)cc3)C(=O)NC4)C2)cnn1C(F)F [Compound 73]
number: 3.91

Reported log10 IC50 for Cn1ccc(COc2cc3c(cc2-c2cnn(C(F)F)c2)C(=O)NC3)n1 [Compound 50] was 3.37

Lab note: measured log10 IC50 of [2H]C([2H])(Oc1cc2c(cc1-c1ccc(F)cc1)C(=O)NC2)c1cnn(C)c1 [Compound 30] was 2.62
